test.system: T1, Bub1^289–359–R314A–Bub3 complex (S. cerevisiae, UniProt P41695 289-359; P26449 1-341, R314A)
T1 sequence 1: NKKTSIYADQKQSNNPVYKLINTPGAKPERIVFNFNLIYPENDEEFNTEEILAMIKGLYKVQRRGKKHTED
T1 sequence 2: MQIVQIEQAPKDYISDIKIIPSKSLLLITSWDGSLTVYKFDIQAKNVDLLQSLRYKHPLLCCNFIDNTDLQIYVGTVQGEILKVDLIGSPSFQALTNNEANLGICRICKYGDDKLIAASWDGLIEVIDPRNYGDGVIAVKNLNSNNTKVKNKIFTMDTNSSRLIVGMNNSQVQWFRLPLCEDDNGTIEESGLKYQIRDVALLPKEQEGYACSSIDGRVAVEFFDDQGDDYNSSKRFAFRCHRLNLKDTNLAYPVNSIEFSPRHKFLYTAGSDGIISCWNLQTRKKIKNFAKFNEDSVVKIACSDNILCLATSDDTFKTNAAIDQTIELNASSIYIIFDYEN
test.description: ITC
Square brackets hold non-standard residues; d marks the D form. Ends that are not written are not given here. pT = C[C@@H](OP(=O)(O)O)[C@H](N)C(=O)O
result.type: Kd (nM)
Give the value in nM but do not write nM after it.

Assign Kd to the following record: DPTSMEM[pT]EVFPRSIRQKN (not fully specified) [MELT2^P peptide (phosphorylated second MELT repeat of Spc105/Knl1)]
790

Hey, just so you know, these numbers are from paper PMC3779320.
